- Tested on: IL-1β stimulated IL-8 secretion in human umbilical vein endothelial cells (HUVECs)
- assay-summary: IL-1β stimulated IL-8 secretion assay in HUVEC cells (ELISA)
- Assay type: cell-based
- recorded-conditions: 0.5 ng/ml IL-1β, 24 h, IL-8 ELISA
The following molecules are listed with their measured IC50 values.
Answer format: numeric, nM implied, no suffix.

Would you please look over these solved cases?
NC(=O)c1c(Cl)c(-c2cccnc2)n2c1CCCC2	350
Cc1ccncc1-c1c(Cl)c(C(N)=O)c2n1CCCC2	510
NC(=O)c1c(Cl)c(-c2cccnc2)n2c1C=CCC2	1600

Shifting focus to the molecule that follows.
Assay IL-1β stimulated IL-8 secretion in human umbilical vein endothelial cells (HUVECs), sample NC(=O)c1c(Cl)c(-c2cccnc2)n2c1C(O)CCC2 (stereo not shown) , IC50 read: 760
